Emax overview
measured_on: glutathione-S-transferase (GST) tagged LXRalpha LBD (ligand binding domain) (Homo sapiens, UniProt Q13133)
Construct: purchased Invitrogen pv4655
Sequence (Q13133 209-447 limits assumed): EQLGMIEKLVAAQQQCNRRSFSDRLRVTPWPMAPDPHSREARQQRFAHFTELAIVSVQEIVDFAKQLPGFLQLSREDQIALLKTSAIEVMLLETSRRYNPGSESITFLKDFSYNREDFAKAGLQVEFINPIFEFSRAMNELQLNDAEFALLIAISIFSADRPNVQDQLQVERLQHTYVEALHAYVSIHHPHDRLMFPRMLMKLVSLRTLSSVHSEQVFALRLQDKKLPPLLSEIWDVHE
test_summary: biochemical
setup_conditions: read-out: LXR alpha actiivty at max dose, efficacy (% Emax) in relation to reference dual agonist T0901317
Entry rule: numbers only, all in %.

These solved cases illustrate the format of a correct answer.
# compound, Emax [%]
data = [
    ("COc1ccccc1[C@@](O)(C(=O)N1CCC2(CC1)C[C@H]2CCCOc1ccc(C(=O)N(C)C)c(Cl)c1)C(F)(F)F (single isomer, unassigned)", 6),
    ("CN(C)C(=O)c1ccc(OCCCCC2CCN(C(=O)C(O)(c3cccc(-c4cnn(C)c4)c3)C(F)(F)F)CC2)cc1Cl (single isomer, unassigned)", 25),
]

So what does the record say about Emax for CN(C)C(=O)c1ccc(OCCC2CC23CCN(C(=O)C2(c4ccccc4)CCCN(C(=O)OC(C)(C)C)C2)CC3)cc1Cl (single isomer, unassigned) ?
0

So what does the record say about Emax for CN(C)C(=O)c1ccc(OCCCCC2CCN(C(=O)C3(c4ccccc4)CCC3)CC2)cc1Cl ?
0

So what does the record say about Emax for O=C(NC1CC1)c1ccc(OCCCCC2CCN(C(=O)[C@](O)(c3ccccc3)C(F)(F)F)CC2)cc1Cl (single isomer, unassigned) ?
29

So what does the record say about Emax for CC(C)(C(=O)N1CCC2(CC1)CC(CCOc1ccc(C(=O)N3CCCC3)c(Cl)c1)C2)c1ccccc1 ?
13

So what does the record say about Emax for O=C(c1ccc(OCCCCC2CCN(C(=O)[C@](O)(c3ccccc3)C(F)(F)F)CC2)cc1Cl)N1CC[C@@H](O)C1 (single isomer, unassigned) ?
26

So what does the record say about Emax for CN(C)C(=O)c1ccc(OCCC2CC23CCN(C(=O)C(C)(C)c2ccccc2)CC3)nc1Cl (stereo not shown) ?
67

So what does the record say about Emax for CN(C)C(=O)c1ccc(OCCCCC2(C)CCN(C(=O)C3(c4ccccc4)CCCC3)CC2)cc1Cl ?
13
